test: Viability qHTS for spleen associated tyrosine kinase inhibitor (SYKi) drug resistant MV4-11 cells (AID 1963824); conditions: SYKi-resistant MV4-11 viability, CellTiter-Glo, 72 h; series mostly up to 45 µM; note: nearly all actives have a fitted effect of over 35% in size
Results filed as inconclusive are left out. Activity calls are given as the source filed them. Calls come from the whole dose curve; as a rule, active = well fitted cell-killing curve with a large enough effect; inconclusive = small, poorly fitted or top-dose-only effect, or effect the other way; inactive = no such curve, though single readings can be large or run the other way.
Assign a class; possible classes are active, inactive

# example entries with known answers
compound	assigned.category
O=C(CC1CC(c2ccc(F)cc2F)=NO1)N1CCOCC1 (centres undefined)	inactive
O=c1[nH]c(=O)n([C@H]2C[C@H](O)[C@@H](CO)O2)cc1I	active
COc1cc(/C=C/c2cc(O)cc(O[C@@H]3O[C@H](CO)[C@@H](O)[C@H](O)[C@H]3O)c2)ccc1O	inactive

Given `CN[C@@H](C)C(=O)N[C@@H]1C(=O)N(Cc2c(C)ccc3ccccc23)c2ccc(C#N)cc2N(C(C)=O)[C@H]1C` , state the outcome it received in this test.
active

Please state the recorded outcome for this compound: `CN1CCN(CCC(=O)N2c3ccccc3Sc3ccc(C(F)(F)F)cc32)CC1`
active

Dear colleague, could you share the recorded outcome for `CCN(CC)CCOCCOC(=O)C(CC)(CC)c1ccccc1` when you have a moment?
active

GET /call?item= C=C(C)C(=O)OC1CC2(C)OC(=CC2=O)C(=C)CC2OC(=O)C(COC)C12 (centres undefined) returns the recorded outcome of this test.
active

# outcome recorded in this test, key = `Oc1c(Cl)cc(Cl)c(Cl)c1Cc1c(O)c(Cl)cc(Cl)c1Cl`
active

Can you look up the reported call for `Cc1ccc(-c2ccc3ncc4c(c3n2)n(C2CCN(C(=O)[C@H](C)O)CC2)c(=O)n4C)cn1` for me?
active

---

assay: Cellular viability qHTS for adrenocortical cancer (ACC) cell line NCI-H295R (AID 1963990); conditions: CellTiter-Glo ATP luminescence, 48 h; series mostly up to 46.1 µM; note: nearly all actives have a fitted effect of over 60% in size
Results filed as inconclusive are left out. Active and inactive are the calls of the source. Calls come from the whole dose curve; as a rule, active = well fitted cell-killing curve with a large enough effect; inconclusive = small, poorly fitted or top-dose-only effect; inactive = flat fitted curve, though single readings scatter.
The reply should be one of these categories: active, inactive

Solved cases (8 shown):
molecule	assigned.category
CS(=O)(=O)N(Cc1ccco1)CC(O)Cn1c2ccccc2c2ccccc21 (configuration not stated)	inactive
NC(=O)Nc1cc(-c2ccc(CN3CCOCC3)cc2)sc1C(N)=O	active
Oc1ccc(O)cc1	inactive
CCN(CC)CC(=O)Nc1c(C)cccc1C	inactive
Cc1cc(Nc2cc(N3CCN(C)CC3)nc(/C=C/c3ccccc3)n2)n[nH]1	active
CCC(=O)O[C@]1(C(=O)SCF)[C@H](C)C[C@H]2[C@@H]3C[C@H](F)C4=CC(=O)C=C[C@]4(C)[C@@]3(F)[C@@H](O)C[C@@]21C	inactive
Cc1sc2c(c1C)C(c1ccc(Cl)cc1)=N[C@@H](CC(=O)Nc1ccc(OCCOCCOCCOCCNc3cccc4c3C(=O)N(C3CCC(=O)NC3=O)C4=O)cc1)c1nnc(C)n1-2 (some centres not stated)	active
COc1cc2ncnc(Nc3cccc(Br)c3)c2cc1OC	inactive

Fill in: this test's call for `O=C(O)C(=O)Nc1cccc(-c2nn[nH]n2)c1` is ___
inactive

Answer briefly: the call reported for `C[C@H]1COc2c(N3CCN(C)CC3)c(F)cc3c(=O)c(C(=O)O)cn1c23` in this assay.
inactive

Short answer needed: outcome of this test for `CCOC(=O)c1c(C)n(C)c2ccc(O)cc12` ?
inactive

For this molecule, state the assay outcome: `CC(=O)N(CC(=O)N(C)C)c1ccccc1`
inactive

Which outcome was assigned to `CC(=O)OCC1=C(C(=O)O)N2C(=O)[C@@H](NC(=O)Cc3cccs3)[C@H]2SC1` in this test?
inactive

I'd appreciate the recorded outcome for `CC(C)(CO)[C@@H](O)C(=O)NCCC(=O)O` from this test.
inactive

Outcome? `CCCCc1nc2cc(/C=C/C(=O)NO)ccc2n1CCN(CC)CC`
active

Which outcome was entered for the molecule `CCCCc1oc2ccccc2c1C(=O)c1cc(I)c(OCCN(CC)CC)c(I)c1` in this test?
active

Outcome? `CCCn1c(=O)c2[nH]c(-c3cnn(Cc4cccc(C(F)(F)F)c4)c3)nc2n(CC)c1=O`
inactive
